Conditions: 296.15 K; 100 kPa; Liquid; Vibrating tube method
value.kind: mass density (kg/m3)

{"structure.string": "CCCC[N+](C)(C)CC.O=S(=O)([N-]S(=O)(=O)C(F)(F)F)C(F)(F)F", "value.kind": "mass density", "measured.result": 1373.4}
{"structure.string": "CC[N+](CCO)(CCO)CCO.O=S(=O)([N-]S(=O)(=O)C(F)(F)F)C(F)(F)F", "value.kind": "mass density", "measured.result": 1531.5}
{"structure.string": "CC[N+](C)(CCO)CCO.O=S(=O)([N-]S(=O)(=O)C(F)(F)F)C(F)(F)F", "value.kind": "mass density", "measured.result": 1517.1}
{"structure.string": "CC[N+](C)(C)CCOC.O=S(=O)([N-]S(=O)(=O)C(F)(F)F)C(F)(F)F", "value.kind": "mass density", "measured.result": 1432.8}
{"structure.string": "C[N+](CCO)(CCO)CCO.O=S(=O)([N-]S(=O)(=O)C(F)(F)F)C(F)(F)F", "value.kind": "mass density", "measured.result": 1568.6}
{"structure.string": "CCCC[N+](CCO)(CCO)CCO.O=S(=O)([N-]S(=O)(=O)C(F)(F)F)C(F)(F)F", "value.kind": "mass density", "measured.result": 1458.3}
{"structure.string": "CC[N+](C)(C)CCCO.O=S(=O)([N-]S(=O)(=O)C(F)(F)F)C(F)(F)F", "value.kind": "mass density", "measured.result": 1465.2}

====

Details: 362.16 K; 100 kPa; Liquid; Vibrating tube method
Collected mass density values appear next to each entry.
value.kind: mass density (kg/m3)

{"structure.string": "CC[N+](C)(C)CCCO.O=S(=O)([N-]S(=O)(=O)C(F)(F)F)C(F)(F)F", "measured.result": 1408.3}
{"structure.string": "CCCC[N+](C)(C)CC.O=S(=O)([N-]S(=O)(=O)C(F)(F)F)C(F)(F)F", "measured.result": 1316.6}
{"structure.string": "CCCC[N+](CCO)(CCO)CCO.O=S(=O)([N-]S(=O)(=O)C(F)(F)F)C(F)(F)F", "measured.result": 1401.9}
{"structure.string": "CC[N+](CCO)(CCO)CCO.O=S(=O)([N-]S(=O)(=O)C(F)(F)F)C(F)(F)F", "measured.result": 1474.6}
{"structure.string": "C[N+](CCO)(CCO)CCO.O=S(=O)([N-]S(=O)(=O)C(F)(F)F)C(F)(F)F", "measured.result": 1510.2}
{"structure.string": "CC[N+](C)(CCO)CCO.O=S(=O)([N-]S(=O)(=O)C(F)(F)F)C(F)(F)F", "measured.result": 1459.2}
{"structure.string": "CC[N+](C)(C)CCOC.O=S(=O)([N-]S(=O)(=O)C(F)(F)F)C(F)(F)F", "measured.result": 1372.4}

====

Conditions: 313.15 K; 100 kPa; Liquid; Vibrating tube method
value.kind: mass density (kg/m3)

{"structure.string": "CC[N+](CCO)(CCO)CCO.O=S(=O)([N-]S(=O)(=O)C(F)(F)F)C(F)(F)F", "value.kind": "mass density", "value.unit": "kg/m3", "measured.result": 1516.6}
{"structure.string": "CC[N+](C)(CCO)CCO.O=S(=O)([N-]S(=O)(=O)C(F)(F)F)C(F)(F)F", "value.kind": "mass density", "value.unit": "kg/m3", "measured.result": 1501.7}
{"structure.string": "CCCC[N+](C)(C)CC.O=S(=O)([N-]S(=O)(=O)C(F)(F)F)C(F)(F)F", "value.kind": "mass density", "value.unit": "kg/m3", "measured.result": 1358.4}
{"structure.string": "CCCC[N+](CCO)(CCO)CCO.O=S(=O)([N-]S(=O)(=O)C(F)(F)F)C(F)(F)F", "value.kind": "mass density", "value.unit": "kg/m3", "measured.result": 1443.6}
{"structure.string": "CC[N+](C)(C)CCCO.O=S(=O)([N-]S(=O)(=O)C(F)(F)F)C(F)(F)F", "value.kind": "mass density", "value.unit": "kg/m3", "measured.result": 1450.3}
{"structure.string": "CC[N+](C)(C)CCOC.O=S(=O)([N-]S(=O)(=O)C(F)(F)F)C(F)(F)F", "value.kind": "mass density", "value.unit": "kg/m3", "measured.result": 1416.9}
{"structure.string": "C[N+](CCO)(CCO)CCO.O=S(=O)([N-]S(=O)(=O)C(F)(F)F)C(F)(F)F", "value.kind": "mass density", "value.unit": "kg/m3", "measured.result": 1553.3}
